The origin of these recorded values is patent US20200331925A1.

Assayed System: CDK2/Cyclin E (Homo sapiens)
Assay Explanation: CDK2/Cyclin E kinase assay (Nanosyn, Caliper microfluidic)
Condition Parameters: 12-point dose-response, ATP at Km (100 μM), 3 hr
pIC50: −log10 of the molar value.
Measured Endpoint: pIC50

Below: 6 molecules and their reported pIC50.
Give the reported pIC50 for CN(C)[C@H]1CC[C@H](Nc2ncc3cc4n(c3n2)C2(CCCCC2)CNC4=O)CC1 (system: CDK2/Cyclin E (Homo sapiens)).
6.59

Request: pIC50, test system CDK2/Cyclin E (Homo sapiens), entry C1=NCC2(CCCCC2)n2c1cc1cnc(N[C@@H]3CCCNC3)nc12
6.31

// fetch CDK2/Cyclin E (Homo sapiens) pIC50 for N[C@H]1CC[C@@H](Nc2ncc3cc4n(c3n2)C2(CCCCC2)CN=C4)CC1
6.48

Provide value of pIC50 for this record tested with CDK2/Cyclin E (Homo sapiens): O=C1NCC2(CCCCC2)n2c1cc1cnc(N[C@H]3CCCN[C@@H]3c3ccccc3)nc12
5.24

Recorded pIC50 for O=C1NCC2(CCCCC2)n2c1cc1cnc(N[C@H]3CC[C@H](NC4CCOCC4)CC3)nc12 with CDK2/Cyclin E (Homo sapiens), please?
6.72

API: value(readout= pIC50, system= CDK2/Cyclin E (Homo sapiens), query= O=C1NCC2(CCCCC2)n2c1cc1cnc(N[C@H]3CC[C@H](Nc4ncc(F)cn4)CC3)nc12 )
6.96

a = C1=NCC2(CCCCC2)n2c1cc1cnc(N[C@H]3CCCNC3)nc12
b = O=C1NCC2(CCCCC2)n2c1cc1cnc(NC(=O)[C@@H]3CCCNC3)nc12
c = O=C1NCC2(CCCCC2)n2c1cc1cnc(N[C@@H]3CCCNC3)nc12
d = O=C1NCC2(CCCCC2)n2c1cc1cnc(N[C@H]3CC[C@H](N4CCCCC4)CC3)nc12
Task for the reader: rank each entry by its pIC50, from the minimum upward. Field: ranking. Enter the labels in the order requested.
b, c, d, a
(b: 4.89, c: 5.96, d: 6.33, a: 6.72)

P = O=C1NCC2(CCCCC2)n2c1cc1cnc(N[C@H]3CC[C@H](NCc4cccnc4)CC3)nc12
Q = N[C@H]1CC[C@H](Nc2ncc3cc4n(c3n2)C2(CCCCC2)CNC4=O)CC1
R = O=C1NCC2(CCCCC2)n2c1cc1cnc(NC(=O)[C@@H]3CCNC3)nc12
hey, can you rank those molecules up there by pIC50? biggest number first please Rank them, then answer with their labels in that order.
Q, P, R
